target: Bcl-2-like protein 10 (Homo sapiens); assay: TR3 peptide-Bcl-B binding displacers, biochemical primary FP assay, phenotype converters (AID 1240); settings: GST-Bcl-B / FITC-TR3 peptide fluorescence polarization; stronger effect = higher value; compound at 3.75 mg/L;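 further: 0% = Bcl-B with tracer peptide and DMSO and 100% = tracer peptide lacking Bcl-B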
Among all 50,000 compounds or so, about 800 (1.6%) showed an effect of 50% or more. The sample holds strong results, similar compounds and a random draw of the others, so the mix is not that of the screen.
Label yes (1) when displacement is at or above 10%; anything below gets no (0).

{"compound": "Cc1cccc(NC(=O)c2ccccc2NC(=O)c2cccs2)c1C", "groupLabel": "no (0)"}
{"compound": "CCc1ccccc1NC(=O)c1cncc(Br)c1", "groupLabel": "no (0)"}
{"compound": "O=C(CCN1C(=O)/C(=C\\c2cccs2)SC1=S)Nc1ccc(Cl)cc1", "groupLabel": "yes (1)"}

[Q] Decide: is the reported value of displacement for Cc1c(O)nc(Nc2nc(C)c3ccccc3n2)[nH]c1=O equal to or greater than 10%?
[A] no (0)

[Q] Does the compound O=C(CCCN1C(=O)/C(=C\c2cccs2)SC1=S)Nc1ccccc1O have recorded displacement that is 10% or more?
[A] yes (1)

[Q] Entry COc1ccc(N2C(=O)NC(=O)/C(=C\c3ccc(C)cc3)C2=O)cc1 : is its displacement no less than 10%?
[A] no (0)

[Q] hey, is displacement for this one >= 10%? O=C(/C=C/c1ccc(F)cc1)NC(=S)NCc1ccco1
[A] yes (1)

[Q] Reported displacement at or above 10%? COc1ccc(/C=C2/SC(=O)N(CC(=O)Nc3ccc(C)c(C)c3)C2=O)cc1OC
[A] yes (1)

[Q] Item CCOC(=O)C(=C/C=C1/Sc2ccccc2N1C)C(=O)OCC with displacement of 10% or above?
[A] yes (1)

[Q] Hi team, for CCC(C)NC(=O)CN(c1ccccc1)S(=O)(=O)c1ccccc1[N+](=O)[O-] (stereo not given) , is the recorded displacement at or above 10%?
[A] no (0)

[Q] Tell me whether displacement is at least 10% here: O=C(CCN1C(=O)/C(=C/c2cccs2)SC1=S)Nc1ccc(F)cc1
[A] yes (1)

[Q] # check: displacement of CCOc1ccc(/C=C2\SC(=S)N(CCC(=O)N3CCN(C)CC3)C2=O)cc1 is greater than or equal to 10%
[A] no (0)

====

target: Bcl-2-like protein 10 (Homo sapiens) (UniProt Q9HD36); assay: TR3 peptide-Bcl-B binding displacers, biochemical primary FP assay, phenotype converters (AID 1240); conditions: GST-Bcl-B / FITC-TR3 peptide fluorescence polarization; stronger effect = higher value; compound at 3.75 mg/L;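 further: 0% = Bcl-B with tracer peptide and DMSO and 100% = tracer peptide lacking Bcl-B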
Sequence (Q9HD36 whole entry, looked up): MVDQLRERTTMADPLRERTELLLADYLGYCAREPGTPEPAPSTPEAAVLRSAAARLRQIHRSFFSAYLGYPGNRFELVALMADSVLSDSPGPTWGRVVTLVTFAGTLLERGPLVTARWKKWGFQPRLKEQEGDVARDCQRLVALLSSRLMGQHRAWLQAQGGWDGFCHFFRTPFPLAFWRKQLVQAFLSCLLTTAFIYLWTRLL
In all, about 50,000 compounds went through this assay and about 800 (1.6%) showed an effect of 50% or more. Shown is part of a subset that was picked to be rich in strong results.
resultType: displacement (%)
Express your answer in %, writing the number without its unit.

// below: answered molecules
{"molecule": "CCOc1ccc(N2C(=O)S/C(=C\\c3ccc(C)o3)C2=O)cc1", "targetOfAssay": "Bcl-2-like protein 10 (Homo sapiens) (UniProt Q9HD36)", "displacement, %": 108}
{"molecule": "CN(C)c1ccc(C(O)C(C)(O)c2nc3ccccc3n2C)cc1 (stereo not given)", "targetOfAssay": "Bcl-2-like protein 10 (Homo sapiens) (UniProt Q9HD36)", "displacement, %": 6.1}
{"molecule": "COc1ccc(C(=O)Nc2cccc(NC(=O)c3ccc(F)cc3)c2)cc1Br", "targetOfAssay": "Bcl-2-like protein 10 (Homo sapiens) (UniProt Q9HD36)", "displacement, %": 2.2}
{"molecule": "Cc1cc(C)c2c(N)c(C(=O)c3ccc(Br)cc3)sc2n1", "targetOfAssay": "Bcl-2-like protein 10 (Homo sapiens) (UniProt Q9HD36)", "displacement, %": -7.3}
{"molecule": "Cc1ccc2nc(-c3ccc(C)c(NC(=O)c4ccc5ccccc5c4)c3)oc2c1", "targetOfAssay": "Bcl-2-like protein 10 (Homo sapiens) (UniProt Q9HD36)", "displacement, %": -11.3}

[Q] Endpoint output: displacement of N#CC(C#N)=Cc1cn(-c2ccccc2)nc1-c1ccc(-c2ccc([N+](=O)[O-])cc2)o1 . Value?
[A] -5.9

[Q] So what's the measured displacement for this one? COc1ccc(CCNC(=O)c2c(Cl)ccc(Cl)c2OC)cc1OC
[A] 57

[Q] Need displacement of COc1cc(/C=C2\C(=O)NC(=O)N(c3ccc(Cl)cc3)C2=O)cc(Cl)c1OC , thanks.
[A] -2.2

[Q] Value lookup for displacement; key = CC(=O)c1ccc(NC(=O)C2CC(=O)N(C3CCCCC3)C2)cc1 (stereo not given)
[A] 11.1

[Q] Could you tell me which displacement is on file for Cc1ccnc(N2C(=O)c3ccc(C(=O)O)cc3C2=O)c1 ?
[A] 1.9

[Q] Consider the molecule shown here: COc1ccc(CCNC(=O)c2ccc(Cl)c(Cl)c2)cc1OC What is its recorded displacement?
[A] 6

[Q] What value of measured displacement is listed for O=C(O/C(=C/c1nccn1Cc1ccc(Cl)cc1)c1ccccc1)c1ccccc1 ?
[A] -1.2

[Q] Data request, read-out displacement, for O=C(c1ccc(F)cc1)N1CCN(c2cccc(Cl)c2)CC1
[A] 2.4

[Q] Using the record for Fc1ccc(-c2noc(-c3ccc(Cl)cc3)n2)cc1 , report its displacement.
[A] -6.4

[Q] Item O=c1c2c(nc3cc(-c4cccs4)[nH]n13)CCC2 has what recorded displacement?
[A] 5.7

[Q] Fill in: displacement of CCc1ccc2oc(-c3cccc(NC(=O)c4ccc5c(c4)OCCO5)c3)nc2c1 is ___
[A] 0.9

[Q] For the molecule CN(C)c1ccnc2sc(C(=O)c3ccc(Br)cc3)c(N)c12 , what displacement is on record?
[A] 10

====

target: Bcl-2-like protein 10 (Homo sapiens); experiment: TR3 peptide-Bcl-B binding displacers, biochemical primary FP assay, phenotype converters (AID 1240); settings: GST-Bcl-B / FITC-TR3 peptide fluorescence polarization; stronger effect = higher value; compound at 3.75 mg/L;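 further: 0% = Bcl-B with tracer peptide and DMSO and 100% = tracer peptide lacking Bcl-B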
The whole screen tested about 50,000 compounds, of which about 800 (1.6%) showed an effect of 50% or more. The full list was thinned out, with strong results kept by preference.
resultType: displacement

{"molecule": "COc1ccccc1NC(=O)c1ccc(Oc2ccc(C(=O)Nc3ccccc3OC)cc2)cc1", "observed": "-1.8%"}
{"molecule": "Cc1ccc(-c2ccccc2)n1-c1ccccc1C(=O)O", "observed": "86.8%"}
{"molecule": "Brc1ccc(Nc2nc(-c3ccncc3)nc3ccccc23)cc1", "observed": "44.4%"}
{"molecule": "CCCSc1nnc2n(-c3ccc(OC)cc3)c(=O)c3c4c(sc3n12)CCCC4", "observed": "34.9%"}

# next molecule below
[Q] // returns reported displacement for input COc1ccc(N)cc1-n1c(C)ccc1C
[A] 42.5%

====

molecular target: Bcl-2-like protein 10 (Homo sapiens) (UniProt Q9HD36); assay: TR3 peptide-Bcl-B binding displacers, biochemical primary FP assay, phenotype converters (AID 1240); settings: GST-Bcl-B / FITC-TR3 peptide fluorescence polarization; stronger effect = higher value; compound at 3.75 mg/L;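 further: 0% = Bcl-B with tracer peptide and DMSO and 100% = tracer peptide lacking Bcl-B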
About 800 (1.6%) of roughly 50,000 compounds showed an effect of 50% or more. For the sample, strong results were picked, then their nearest neighbours and some compounds at random.
Reported displacement by item:
Note: unit % is implicit; provide only the numeric part.

Example results:
{"compound": "CCOC(=O)C1=C(N)OC2=C(C(=O)CCC2)C1c1ccc(Cl)cc1Cl (stereo not drawn)", "targetOfAssay": "Bcl-2-like protein 10 (Homo sapiens) (UniProt Q9HD36)", "unitLabel": "%", "observed": -2.9}
{"compound": "CSc1nc(N)c(C#N)c(-c2ccccc2)c1C#N", "targetOfAssay": "Bcl-2-like protein 10 (Homo sapiens) (UniProt Q9HD36)", "unitLabel": "%", "observed": -11}
{"compound": "COc1ccc(/C=C/C(=O)/C=C/c2ccc(N(C)C)cc2)cc1", "targetOfAssay": "Bcl-2-like protein 10 (Homo sapiens) (UniProt Q9HD36)", "unitLabel": "%", "observed": -3}
{"compound": "CCCOc1ccc(N2C(=O)CC(NCc3cccnc3)C2=O)cc1 (stereo not drawn)", "targetOfAssay": "Bcl-2-like protein 10 (Homo sapiens) (UniProt Q9HD36)", "unitLabel": "%", "observed": 1.7}
{"compound": "COc1ccc(C(=O)N2CCN(Cc3cccc(Oc4ccccc4)c3)CC2)cc1OC", "targetOfAssay": "Bcl-2-like protein 10 (Homo sapiens) (UniProt Q9HD36)", "unitLabel": "%", "observed": 6.4}
{"compound": "Cc1ccc(C)c(S(=O)(=O)Nc2ccc(Cl)cc2)c1", "targetOfAssay": "Bcl-2-like protein 10 (Homo sapiens) (UniProt Q9HD36)", "unitLabel": "%", "observed": 9}
{"compound": "CCCOc1ccc(N2C(=O)CC(NCCNc3ccc([N+](=O)[O-])cn3)C2=O)cc1 (stereo not drawn)", "targetOfAssay": "Bcl-2-like protein 10 (Homo sapiens) (UniProt Q9HD36)", "unitLabel": "%", "observed": -1.7}
{"compound": "CCOC(=O)C1C(=O)NCC2CCCC21 (stereo not drawn)", "targetOfAssay": "Bcl-2-like protein 10 (Homo sapiens) (UniProt Q9HD36)", "unitLabel": "%", "observed": 4.6}

[Q] Look up displacement for this compound: O=C1CS/C(=N/N=C/c2c3ccccc3cc3ccccc23)N1
[A] -1.8

[Q] displacement for O=c1c2ccccc2nc(/C=C\c2ccccc2O)n1-c1cccc2ccccc12 ?
[A] -6.6

[Q] Recorded displacement of COc1ccc(C(=O)N2CCN(Cc3ccccc3C)CC2)cc1OC , please.
[A] -1

[Q] Item CC(C)CN1C(=O)/C(=C/c2cccc3ccccc23)SC1=S has what recorded displacement?
[A] 8.3

[Q] Return reported displacement; argument: Cc1ccc(C(=O)Nc2ccc(S(=O)(=O)N3CCc4ccccc43)cc2)cc1
[A] 1.6
